species on record: Rattus norvegicus; assay: Open TG-GATES - Regimen: Daily Repeat; format: toxicity, organism-based, Sprague-Dawley; design: regimen Daily Repeat, gender Male, age 6 weeks; details: in vivo, po, 1000 mg/kg, 72 h, tissue Liver, route gavage, dose level High, time 3 day

# smiles_notation, unit_spec, LIVER
records = [
    ("Cc1nnc2n1-c1ccc(Cl)cc1C(c1ccccc1Cl)=NC2", "g", 10.9),
    ("CCOc1ccc(NC(C)=O)cc1", "g", 11),
    ("CNC(=C[N+](=O)[O-])NCCSCc1ccc(CN(C)C)o1", "g", 12),
    ("CN/C(=N/CCSCc1nc[nH]c1C)NC#N", "g", 11.5),
    ("O=C(OC[C@H]1O[C@@H](OC(=O)c2cc(O)c(O)c(OC(=O)c3cc(O)c(O)c(O)c3)c2)[C@H](OC(=O)c2cc(O)c(O)c(OC(=O)c3cc(O)c(O)c(O)c3)c2)[C@@H](OC(=O)c2cc(O)c(O)c(OC(=O)c3cc(O)c(O)c(O)c3)c2)[C@@H]1OC(=O)c1cc(O)c(O)c(OC(=O)c2cc(O)c(O)c(O)c2)c1)c1cc(O)c(O)c(OC(=O)c2cc(O)c(O)c(O)c2)c1", "g", 10.6),
]

###

organism: Rattus norvegicus; assay: Open TG-GATES - Regimen: Daily Repeat; format: toxicity, organism-based, Sprague-Dawley; design: regimen Daily Repeat, gender Male, age 6 weeks; conditions: in vivo, po, 100 mg/kg, 72 h, tissue Plasma, route gavage, dose level Low, time 3 day
Tag: class 1 if measured LDH is not below 100 IU/L, class 0 if it is.

# smiles_notation, assigned_label
rows = [
    ("O=C(OC[C@H]1O[C@@H](OC(=O)c2cc(O)c(O)c(OC(=O)c3cc(O)c(O)c(O)c3)c2)[C@H](OC(=O)c2cc(O)c(O)c(OC(=O)c3cc(O)c(O)c(O)c3)c2)[C@@H](OC(=O)c2cc(O)c(O)c(OC(=O)c3cc(O)c(O)c(O)c3)c2)[C@@H]1OC(=O)c1cc(O)c(O)c(OC(=O)c2cc(O)c(O)c(O)c2)c1)c1cc(O)c(O)c(OC(=O)c2cc(O)c(O)c(O)c2)c1", "class 0"),
    ("CNC(=C[N+](=O)[O-])NCCSCc1ccc(CN(C)C)o1", "class 1"),
    ("CCOc1ccc(NC(C)=O)cc1", "class 1"),
    ("CN/C(=N/CCSCc1nc[nH]c1C)NC#N", "class 1"),
    ("COC(=O)C1=C(C)NC(C)=C(C(=O)OC)C1c1ccccc1[N+](=O)[O-]", "class 0"),
    ("Cc1nnc2n1-c1ccc(Cl)cc1C(c1ccccc1Cl)=NC2", "class 0"),
]

###

The entries below come with measured Cl values attached.
species on record: Rattus norvegicus; assay: Open TG-GATES - Regimen: Daily Repeat; assay type: toxicity, organism-based, Sprague-Dawley; design: regimen Daily Repeat, gender Male, age 6 weeks; conditions: in vivo, po, 300 mg/kg, 72 h, tissue Plasma, route gavage, dose level Middle, time 3 day
measurement_type: Cl (meq/L)

# compound, experimental_result
records = [
    ("Cc1nnc2n1-c1ccc(Cl)cc1C(c1ccccc1Cl)=NC2 [TRIAZOLAM]", 104.2),
    ("CN/C(=N/CCSCc1nc[nH]c1C)NC#N [CIMETIDINE]", 102.4),
    ("COC(=O)C1=C(C)NC(C)=C(C(=O)OC)C1c1ccccc1[N+](=O)[O-] [NIFEDIPINE]", 107.2),
    ("CNC(=C[N+](=O)[O-])NCCSCc1ccc(CN(C)C)o1 [RANITIDINE]", 104),
    ("O=C(OC[C@H]1O[C@@H](OC(=O)c2cc(O)c(O)c(OC(=O)c3cc(O)c(O)c(O)c3)c2)[C@H](OC(=O)c2cc(O)c(O)c(OC(=O)c3cc(O)c(O)c(O)c3)c2)[C@@H](OC(=O)c2cc(O)c(O)c(OC(=O)c3cc(O)c(O)c(O)c3)c2)[C@@H]1OC(=O)c1cc(O)c(O)c(OC(=O)c2cc(O)c(O)c(O)c2)c1)c1cc(O)c(O)c(OC(=O)c2cc(O)c(O)c(O)c2)c1 [TANNIC ACID]", 103.4),
    ("CCOc1ccc(NC(C)=O)cc1 [PHENACETIN]", 104.8),
]
